test: Stability of markers in solution at room temperature, followed by peak retention time on chromatography; assay type: physicochemical; settings: solution at room temperature, 0.1 mg/ml; 2nd of four analyses at 8 hour intervals
Catalogue of Peak Retention Time readings, one per entry.
Quantity name: Peak Retention Time

{"Molecule": "TV-86: 86-mer sequence-defined polypeptide molecular weight marker of Ala, Glu, Tyr, Lys, molecular weight = 9220 daltons (peptide) AKKYAKKEKAYAKKAEKAAKKAEAKAYKAAEAKKKAKAEAKKYAKAAKAEKKEYAAAEAKYKAEAAKKAYKAEAAKAAAKEAAYEA", "Reported result": "26.100 min"}
{"Molecule": "TV-66: 66-mer sequence-defined polypeptide molecular weight marker of Ala, Glu, Tyr, Lys, molecular weight = 7040 daltons (peptide) AKKYAKKEKAYAKAKKAEAKAAKKAKAEAKKYAKAAKAEKKEYAAAEAKYKAEAAKAAAKEAAYEA", "Reported result": "27.350 min"}
{"Molecule": "TV-109: 109-mer sequence-defined polypeptide molecular weight marker, molecular weight = 11727 daltons (peptide) AKKYAKKAEKAYAKKAKAAKEKKAYAKKEAKAYKAAEAKKKAKAEAKKYAKEAAKAKKEAYKAEAKKYAKAAKAEKKEYAAAEAKKAEAAKAYKAEAAKAAAKEAAYEA", "Reported result": "24.850 min"}
{"Molecule": "TV-77: 77-mer sequence-defined polypeptide molecular weight marker of Ala, Glu, Tyr, Lys, molecular weight = 8259 daltons (peptide) AKKYAKKEKAYAKKAEKAAKKAEAKAYKAAEAKKKAKAEAKKYAKAAKAEKKEYAAAEAKYKAEAAKAAAKEAAYEA", "Reported result": "26.700 min"}
